# System: HeLa cells
# Test Details: Compound screen by flow cytometry: HeLa cell count as surrogate readout of cell viability (z-scoreHeLa)
# Assay type: cell-based, human
# Conditions Used: PKIS compound screen, HeLa cell count, replicate 3
Recorded Endpoint: z-scoreHeLa rep 3
Reply briefly: the number, and no unit.

Compound	z-scoreHeLa rep 3
CCOc1ccc2c(-c3ccnc(Nc4cccc(C(F)(F)F)c4)n3)cnn2n1 [GW811761X]	1.97
CC(C)c1nc(-c2cccc(NS(=O)(=O)c3c(F)cccc3F)c2F)c(-c2ccnc(Nc3ccc(N4CCOCC4)nc3)n2)s1 [GSK2008607A]	-1.31
COc1ccc(Nc2nccc(N3CCC(NC(=O)c4cc5ccccc5s4)C3)n2)cc1 (stereo not shown) [GSK1379738A]	0.30

# context switch: different compound, same z-scoreHeLa rep 3
Give z-scoreHeLa rep 3 (HeLa cells) of the following compound: CS(=O)(=O)Nc1ccc(-c2cc(-c3ccccc3)cc(C(N)=O)c2N)cc1 [GSK586581A]
0.09

====

# Test system: HeLa cells
# Test Details: Compound screen by flow cytometry: HeLa cell count as surrogate readout of cell viability (z-scoreHeLa)
# Format: cell-based, human
# Conditions Used: PKIS compound screen, HeLa cell count, replicate 2
// values below are reported z-scoreHeLa rep 2

Below: 2 compounds and their reported z-scoreHeLa rep 2.
Compound	Tgt	Assay Value
Nc1ncc(-c2cccnc2)c2scc(-c3ccc4c(c3)CCN4C(=O)Cc3ccccc3)c12 [GSK683281A]	HeLa cells	-2.31
COc1cc(Nc2nccc(N3CCC(NC(=O)Nc4ccc5c(c4)OCO5)C3)n2)cc(OC)c1OC (stereo not shown) [GSK1379766A]	HeLa cells	-0.94

What value of measured z-scoreHeLa rep 2 is listed for COc1ccc(S(=O)(=O)NC2CCN(c3cc(C)nc(Nc4cccc(C#N)c4)n3)CC2)cc1 [GSK1653539A] ?
-0.68

Would you kindly repeat that for COc1cccc(NC(=O)NC2CCN(c3ccnc(Nc4cc(OC)c(OC)c(OC)c4)n3)C2)c1 (stereo not shown) [GSK1379763A] ?
-0.09

====

# System: HeLa cells
# Test Details: Compound screen by flow cytometry: HeLa cell count as surrogate readout of cell viability (z-scoreHeLa)
# Assay type: cell-based, human
# Conditions Used: PKIS compound screen, replicate 2
Note to self: use 1.0 only for z-scoreHeLa rep 2 readings below 1; a reading exactly at 1 still gets 0.0.

// below: answered molecules
Molecule	Class Assignment
COc1cc(Nc2ncc3c(C)nc(-c4cc5ccccc5[nH]4)n3n2)cc(OC)c1OC [GW869516X]	0.0
O=C(Nc1n[nH]c2nc(-c3ccccc3)c(Br)cc12)C1CC1	1.0
Cc1cc(Cl)cc2c1NC(=O)C2=NNc1ccc(S(N)(=O)=O)cc1 [GW279320X]	0.0
Cc1cccc(-c2nc(Nc3ccc4ncsc4c3)c3ccccc3n2)n1 [GW867588X]	0.0

Please let me know if Cc1n[nH]c2ccc(-c3cc(OC[C@@H](N)Cc4ccccc4)cnc3-c3ccoc3)cc12 [GSK507358A] shows z-scoreHeLa rep 2 below 1.
0.0

Now consider CS(=O)(=O)CCNCc1ccc(-c2ccc3ncnc(Nc4ccc(OCc5ccccc5)c(Cl)c4)c3c2)o1 [GW574783B] and answer again.
0.0

Follow-up entry: Cc1cc(NCC(c2ccccc2)c2ccccc2)nc(NCc2ccc(C(F)(F)F)cc2)n1 [GW497681X]
1.0

Thanks! And [O-][S+]1CCN(Cc2ccc(-c3ccc4ncnc(Nc5ccc(OCc6ccccc6)c(Cl)c5)c4c3)o2)CC1 [GW583373A] ?
0.0

// same read-out, input: COC(=O)c1cccc(NC(=O)NC2CCN(c3ccnc(NCc4ccc(F)cc4)n3)CC2)c1 [GSK1379860A]
1.0

Query COc1ccc(S(=O)(=O)NC2CCN(c3cc(C)nc(Nc4cccc(C#N)c4)n3)CC2)cc1 [GSK1653539A] next
1.0

Again, but for NS(=O)(=O)c1ccc(N/N=C2\C(=O)Nc3ccc(Cl)cc32)cc1 [GW280670X]
1.0

Next record, please: Cc1ccc(S(=O)(=O)Nc2ccc(Nc3nccc(Nc4cccc5[nH]ncc45)n3)cc2)cc1 [GSK581271A]
1.0

Note, next up: Cc1cn2c(=O)cc(N3CCOCC3)nc2n1Cc1cccc(Cl)c1Cl [GSK2334006A]
1.0

Item: NS(=O)(=O)c1ccc(N/C=C2\C(=O)Nc3ccc4ncsc4c32)cc1 [GW297361X]
1.0

====

# Test system: HeLa cells
# Test Details: Compound screen by flow cytometry: HeLa cell count as surrogate readout of cell viability (z-scoreHeLa)
# Format: cell-based, human
# Conditions Used: PKIS compound screen, replicate 3
# Protocol: The cells were resuspended in cell culture medium without antibiotics, seeded with 10,000 cells/well into Costar flat-bottom 96-well plates (Corning, Amsterdam, the Netherlands), and were incubated overnight at 37°C/5% CO2. […] The calculated mean MOI throughout all experiments was 6.8 ± 4.6 (mean ± SD). […] HeLa cells were harvested by trypsinization and fixed with 1% paraformaldehyde. Samples were measured on a FACSLyric with HTS extension (BD Biosciences). […]
# maps each entry to its z-scoreHeLa rep 3
Keep the answer to the number alone.

Please review the following examples before continuing.
Compound	Tgt	z-scoreHeLa rep 3
COc1ccc(S(=O)(=O)NC2CCN(c3cc(C)nc(Nc4cccc(C#N)c4)n3)CC2)cc1 [GSK1653539A]	HeLa cells	-0.16
CCCNC(=O)Nc1ccc(N(C)c2ccnc(NC3CC3)n2)cc1 [GW818933X]	HeLa cells	0.73
Cc1n[nH]c2ccc(-c3cc(OC[C@@H](N)Cc4ccccc4)cnc3-c3ccoc3)cc12 [GSK507358A]	HeLa cells	1.04

Fill in: z-scoreHeLa rep 3 of O=C(Nc1ccccc1F)NC1CCN(c2ccnc(Nc3ccc(F)cc3)n2)C1 (stereo not shown) [GSK1379722A] is ___
1.09

Entry to check: COc1cc(N2CCN(C(C)C)CC2)ccc1Nc1nc(Nc2ccc(F)cc2C(N)=O)c2cc[nH]c2n1 [GSK1220512A]
-0.85

Cc1nc(-c2ccccc2)n2nc(NCCCN3CCOCC3)ncc12 [GW874091X] , same question.
-0.27

Then what about the compound Cc1ccc(NC(=O)c2ccnc(N3CCN(C)CC3)c2)cc1-c1ccc(C(=O)NCC2CC2)cc1 [GW775604X] ?
-0.32

How about O=C(c1ccc(-c2cc(-c3c[nH]nc3-c3ccccn3)ccn2)cc1)N1CCOCC1 [GW812171X] ?
0.78

Here is the next compound: CNC(=O)c1cc(-c2ccc(F)cc2)cc(-c2ccc(S(=O)(=O)N3CCCC3)cc2)c1N [GSK635416A]
-0.04

Follow-up entry: c1ccc(Oc2ccc(Nc3ccnc4cc(-c5ccc(CNCCN6CCOCC6)o5)ccc34)cc2)nc1 [GW567145X]
-0.32

Next compound up: N#Cc1ccc(CCNc2nccc(-c3cccc(CN4CCNCC4)c3)n2)cc1 [GSK2137462A]
0.23

Next record, please: Cn1cc(C=C2C(=O)Nc3cccnc32)c2ccccc21 [GW441756X]
1.49

Now try `COc1cccc(C2=C(Nc3ccc(Cl)c(C(=O)O)c3)C(=O)NC2=O)c1` .
2.53

Now consider c1ccc(Cn2ncc3cc(Nc4ncnc5ccccc45)ccc32)cc1 [GW273749A] and answer again.
1.82

Same thing, different compound: COc1cc(Nc2nccc(N3CCC(NC(=O)Nc4ccc5c(c4)OCO5)C3)n2)cc(OC)c1OC (stereo not shown) [GSK1379766A]
0.53

What do you have for Cc1cn2c(=O)cc(N3CCOCC3)nc2n1Cc1cccc(Cl)c1Cl [GSK2334006A] ?
-0.25

====

# System: HeLa cells
# Test Details: Compound screen by flow cytometry: HeLa cell count as surrogate readout of cell viability (z-scoreHeLa)
# Type: cell-based, human
# Conditions Used: PKIS compound screen raw data, HeLa cell count, replicate 2
# Experimental: The cells were resuspended in cell culture medium without antibiotics, seeded with 10,000 cells/well into Costar flat-bottom 96-well plates (Corning, Amsterdam, the Netherlands), and were incubated overnight at 37°C/5% CO2. […] The calculated mean MOI throughout all experiments was 6.8 ± 4.6 (mean ± SD). […] HeLa cells were harvested by trypsinization and fixed with 1% paraformaldehyde. Samples were measured on a FACSLyric with HTS extension (BD Biosciences). […]
Below, each entry is listed alongside its reported cell count rep 2.
Respond using a number only.

Example entries begin here.
Molecule	Assay Value
Cc1ccc(NC(=O)c2ccc(Cl)cc2)cc1-c1ccc(C(=O)Nc2ccncc2)cc1 [GSK1398467A]	12964
Cc1ccc(Nc2ccnc(Nc3cccc(C(N)=O)c3)n2)cc1O [GW575808A]	38059
COc1cc2nccc(Nc3cccc(Oc4ccccc4)c3)c2cc1OC [GW284543A]	33464
O=C(c1ccc(-c2cc(-c3c[nH]nc3-c3ccccn3)ccn2)cc1)N1CCCC1 [GW792479X]	27776
O=c1cc(N2CCOCC2)nc2n(Cc3cccc4ccccc34)ccn12 [GSK2333389A]	33281
O=C(Nc1n[nH]c2cc(-c3cccs3)ccc12)C1CC1	2463
O=C(NCCNc1ccnc(Nc2ccc(F)cc2)n1)Nc1ccccc1F [GSK1379880A]	4642
Cc1cccc(-c2nc(Nc3ccncc3)c3ccccc3n2)n1 [GW855857X]	3003
Cc1ccccc1CC(=O)N1CCc2cc(-c3cn(C)c4ncnc(N)c34)ccc21 [GSK2603346A]	27840
NS(=O)(=O)c1cccc(-c2cc3ccncc3cc2OCc2ccccc2)c1 [GSK980961A]	28602

Requested field: cell count rep 2. Item: c1ccc(Oc2ccc(Nc3ccnc4cc(-c5ccc(CN6CCNCC6)o5)ccc34)cc2)nc1 [GW567142A]
29813

Repeat with Cc1ccc(O)cc1Nc1ccnc2cc(-c3ccc(CN4CCCCC4)o3)ccc12 [GW557777X]
37597

Try this molecule next: Cn1cc(-c2ccc3c(c2)CCN3C(=O)Cc2cc(F)cc(C(F)(F)F)c2)c2c(N)ncnc21 [GSK2635225A]
4290

Follow-up item: CCCNC(=O)Nc1ccc(N(C)c2ccnc(NC3CC3)n2)cc1 [GW818933X]
27486

Try this molecule too: Cc1cccc2c1NC(=O)C2=NNc1ccc(S(N)(=O)=O)cc1 [GW282536X]
2013

Next molecule up: COc1ccc(Nc2nccc(N3CCC(NC(=O)Nc4cccc(OC)c4)C3)n2)cc1 (stereo not drawn) [GSK1379742A]
33132

Likewise for COC(=O)Nc1nc2ccc(Oc3ccc(NC(=O)Nc4cc(C(F)(F)F)ccc4F)cc3)cc2n1C [GW692089A] ?
25969

Entry to check: O=C(O[C@H]1CN[C@H](C#Cc2cc3ncnc(Nc4ccc5c(cnn5Cc5ccccc5)c4)c3s2)C1)N1CCOCC1 [GSK200398A]
29797
